Every entry's value here was drawn from paper PMC6354023.

ASSAY REMARKS: Pharmacokinetics of SAR405838 (whole-blood concentrations) in combination
Assay type: in vivo, human
STATED CONDITIONS: human, whole blood, oral, DL3a SAR405838 300 mg QD + pimasertib 60 mg QD; C1D2; read-out: SAR405838 t1/2 (converted)
Text: Blood samples were collected on Days 1 (for pimasertib only), 2, 3, 8 and 15 of Cycle 1, on Days 1 and 2 of Cycle 2, and on Day 1 of Cycles 3 and 4, to determine the whole-blood and plasma concentrations of SAR405838 and pimasertib, respectively.
MEASURED METRIC: half-life (h)

smi=CC(C)(C)C[C@@H]1N[C@@H](C(=O)N[C@H]2CC[C@H](O)CC2)[C@H](c2cccc(Cl)c2F)[C@]12C(=O)Nc1cc(Cl)ccc12 experimental_value=13.3
